- system_tested: T1, CD27 expressed on the cell surface (HT1080_CD27 cells) (human, UniProt P26842 20-260)
- T1 construct: whole, on cells; also called K562_CD27
- T1 sequence (looked up): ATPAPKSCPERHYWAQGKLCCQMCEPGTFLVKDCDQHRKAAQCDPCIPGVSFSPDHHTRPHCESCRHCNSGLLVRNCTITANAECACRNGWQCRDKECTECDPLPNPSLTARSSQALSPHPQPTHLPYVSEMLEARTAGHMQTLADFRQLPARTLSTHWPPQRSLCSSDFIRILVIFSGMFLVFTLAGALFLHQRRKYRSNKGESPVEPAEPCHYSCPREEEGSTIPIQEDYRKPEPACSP
- measurement_description: cellular binding assay, HT1080_CD27 cells; further: test concentration or dose not given here
Cellular binding assay [RFU] values for the binders below.
Output spec: scalar in RFU, unitless text.

P018.S.04.A.G04 (antibody, V domains shown, V regions on human Ig constant parts; also called AB27_78) VH: QSLEESGGRLVTPGTPLTLTCTASGFTISSHHVTWVRQAPGEGLEWIGVIYPSGTTYYASWAKGRFTISRTSTTVDLKMTSLTIEDTATYFCVRDVGYFTLWGQGTLVTVSS VL: AQVLTQTPSPVSAAVGGTVTISCQSSQSVGGNNWLAWYQQKLGQPPKLLIYYASTLASGVPPRFSGSGSGTQFTLTISEVQSDDSATYYCQGYYSDVTNAFGGGTEVVVK : 335
P018.S.02.A.F06 (antibody, V domains shown, V regions on human Ig constant parts; also called AB27_36) VH: QSVEESGGRLVTPGTPLTLTCTVSGFSLSSYVMSWVRQAPGKGLEWIGYIDYGGTPYYASWAKGRFTISKTSTTVELKITSPTIEDTATYFCARGGYGGYILVTGLWGPGTLVTVSS VL: DVVMTQTPASVSEPVGGTVTIKCQASQSISSYCSWYQQRPGQPPKLLIYGASTLASGVPSRFKGSGSGTEYTLTISDLESADAATYYCQTYYGGGPFGNGFGGGTEVVVK : 294

With those in mind, consider the next binder.
Query :: Looking for the measured Cellular binding assay [RFU] of P018.S.09.A.D02 (antibody, V domains shown, V regions on human Ig constant parts; also called AB27_150) VH: QSLEESGGRLVTPGTPLTLTCTASGFSLSKYDMGWFRQAPGKGLEWIGMIGASDRTYYASWVKGRFTISKTSTTVDLRITSPTTEDTATYFCAREYPDARGYYYNLWGPGTPVTVSS VL: ALVMTQTPASVEAAVGGTVTINCQASQSISDLLAWYQQKPGQPPKLLIYDASDLASGVPSRFSGSGSGTEFTLTISGVQSDDAATYYCQQGYSITNVDNVFGGGTEVVVK , can you help?
Result :: 337
